The measured values listed here are drawn from PubChem BioAssay.

molecular target: Dihydroorotate dehydrogenase (quinone), mitochondrial (Plasmodium falciparum (isolate 3D7)) (UniProt Q08210); assay: PfDHODH enzyme inhibitors, primary screen, biochemical, C-terminal His tag, absorbance 600 nm (AID 1175); details: DCIP absorbance 600 nm, higher = more signal, called active from +8 up or from −8 down;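 note: recombinant parasite enzyme with a five histidine tag at its C terminus; test concentration not given here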
Sequence (Q08210 whole entry, looked up): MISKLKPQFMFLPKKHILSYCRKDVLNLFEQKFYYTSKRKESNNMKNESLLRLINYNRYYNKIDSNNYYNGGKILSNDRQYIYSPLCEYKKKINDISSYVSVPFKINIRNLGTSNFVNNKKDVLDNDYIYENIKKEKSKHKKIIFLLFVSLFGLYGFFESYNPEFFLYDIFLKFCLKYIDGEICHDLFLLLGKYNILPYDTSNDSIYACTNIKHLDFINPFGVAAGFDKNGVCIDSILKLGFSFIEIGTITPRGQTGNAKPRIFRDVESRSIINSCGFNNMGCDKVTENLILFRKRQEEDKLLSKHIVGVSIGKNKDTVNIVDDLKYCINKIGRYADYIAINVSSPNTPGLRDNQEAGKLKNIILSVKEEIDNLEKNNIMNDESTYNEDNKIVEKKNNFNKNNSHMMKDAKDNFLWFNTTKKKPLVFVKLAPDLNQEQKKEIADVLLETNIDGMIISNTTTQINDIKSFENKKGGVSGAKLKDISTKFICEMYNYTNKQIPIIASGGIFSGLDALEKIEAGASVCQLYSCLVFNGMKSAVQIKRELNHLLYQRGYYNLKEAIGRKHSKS
We use -0.4 as the dividing line for composite z-score: on or above the line is criterion met, below is criterion not met.

| molecule | label |
| --- | --- |
| CC(CCN1CCCCc2nc(C)c(C)cc21)=NOC(C)CN1CCCc2nc(C)c(C)cc21 (stereo not given) | criterion met |
| CCOC(=O)CCN1C(=O)[C@H]2[C@H]3[C@H](O)[C@H](O)CC(=NOCc4ccccc4)[C@@H]3CC[C@H]2C1=O | criterion met |
| CCCC[C@@H](O)C1=C(C)C[C@H]2C(=O)N(Cc3ccccc3)C(=O)[C@H]2[C@H]1CO | criterion not met |
| COC(=O)[C@H](C)NC(=O)CCC1CC(OC(=O)NCCc2ccc(F)cc2)CC2(CCCC(COC(=O)NCC(c3ccccc3)c3ccccc3)O2)O1 (stereo not given in full) | criterion met |
| COC(=O)[C@@H]1N=C(c2ccc(OCCCO)cc2)O[C@@H]1c1ccccc1N=[N+]=[N-] | criterion met |

input: Can CCOC(=O)[C@H](CC(C)C)NC(=O)CCC1CC(OC(=O)NCc2cccc3ccccc23)CC2(CCCC(COC(=O)NCCN3CCOCC3)O2)O1 (stereo not given in full) be said to have composite z-score at or above -0.4?
output: criterion met

input: Can `CC(=O)OC[C@H]1O[C@@H](ON=C(C)CCN2CCc3nc(-c4ccccc4)c(-c4ccccc4)cc3C2)[C@H](OC(C)=O)[C@@H](OC(C)=O)[C@@H]1OC(C)=O` be said to have composite z-score at or above -0.4?
output: criterion met

input: Can `CCOC(=O)NN=C1C[C@@H](O)[C@@H](O)[C@@H]2[C@@H]3C(=O)N(C4CCCCC4)C(=O)[C@@H]3CC[C@@H]12` be said to have composite z-score at or above -0.4?
output: criterion not met

input: Can `COC(=O)[C@H](C)NC(=O)[C@@H](C)CO` be said to have composite z-score at or above -0.4?
output: criterion met

input: Can `O=C1O[C@@H](c2ccccc2)[C@@H](c2ccccc2)N2[C@@H](c3ccc(OCCO)cc3)[C@]3(C(=O)Nc4ccc(C#CCCO)cc43)[C@@H](C(=O)N3CCCCCCC3)[C@H]12` be said to have composite z-score at or above -0.4?
output: criterion met
